# test target: Vasopressin V1 receptor (Rattus norvegicus, UniProt P48974+P30560)
# method: Inhibition of radioligand [3H]AVP binding to the vasopressin V1 receptor in rat liver tissue
log10 of IC50 reference
Note the log scale: values are log10 of IC50 expressed in nM.

Below: 3 molecules and their reported log10 of IC50.
CC1(C)[C@@H]2CC[C@@]1(CS(=O)(=O)N1CCC3(C=Cc4ccccc43)CC1)[C@](O)(CN)C2 : 5.00
CC1(C)[C@@H]2CC[C@@]1(CS(=O)(=O)N1CCC3(C=Cc4ccccc43)CC1)[C@@](O)(CC(=O)O)C2 : 4.89
CC1(C)[C@@H]2CC[C@@]1(CS(=O)(=O)N1CCC3(CCc4ccccc43)CC1)[C@@H](N1C(=O)CN(Cc3nn[nH]n3)C1=O)C2 : 3.30

Consider C[S+]([O-])CCC(N)C(=O)N[C@H]1C[C@H]2CC[C@]1(CS(=O)(=O)N1CCC3(CCc4ccccc43)CC1)C2(C)C (some centres undefined) . Its measured log10 of IC50 is 3.56

====

Each entry below lists one item and its recorded IC50 value.
# test target: Vasopressin V1 receptor (Rattus norvegicus, UniProt P48974+P30560)
# method: Inhibition of radioligand [3H]AVP binding to the vasopressin V1 receptor in rat liver tissue
# value in nM; strip the unit string

CC1(C)[C@@H]2CC[C@@]1(CS(=O)(=O)N1CCC3(CCc4ccccc43)CC1)[C@@H](NC(=O)NC1CN3CCC1CC3)C2 (single isomer, unassigned; isomer A) : 1700
CC1(C)[C@@H]2CC[C@@]1(CS(=O)(=O)N1CCC3(C=Cc4ccccc43)CC1)[C@@](O)(CNC(=O)Cc1ccccn1)C2 : 830
CC1(C)[C@@H]2CC[C@@]1(CS(=O)(=O)N1CCC3(CCc4ccccc43)CC1)[C@@H](NC(=O)CC(CC(N)=O)NC(=O)Cc1c[nH]cn1)C2 (some centres undefined) : 1300
CC1(C)[C@@H]2CC[C@@]1(CS(=O)(=O)N1CCC3(C=Cc4ccccc43)CC1)[C@@](O)(CNC(=O)NC1CCCCC1)C2 : 950

The record that follows has no IC50 shown yet.
// recorded IC50 for CC1(C)[C@@H]2CC[C@@]1(CS(=O)(=O)N1CCC3(CCc4ccccc43)CC1)[C@@H](NC(=O)C1CN3CCC1CC3)C2 (some centres undefined) : 530

====

# test target: Vasopressin V1 receptor (Rattus norvegicus, UniProt P48974+P30560)
# method: Inhibition of radioligand [3H]AVP binding to the vasopressin V1 receptor in rat liver tissue
Measured IC50 of individual entries
Please respond with the number in nM and leave the unit unwritten.

Solved entries:
CN(C)C(CCS(C)(=O)=O)C(=O)N[C@H]1C[C@H]2CC[C@]1(CS(=O)(=O)N1CCC3(CCc4ccccc43)CC1)C2(C)C (some centres not stated) : 530
CC1(C)[C@@H]2CC[C@@]1(CS(=O)(=O)N1CCC3(CCc4ccccc43)CC1)[C@@H](N1C(=O)CN(CC#N)C1=O)C2 : 530

// switching to the query compound
The reported IC50 of the compound `CC1(C)[C@@H]2CC[C@@]1(CS(=O)(=O)N1CCC3(CCc4ccccc43)CC1)[C@@H](NC(=O)C1CCCCC1)C2` was 10000

====

Vasopressin V2 receptor (Rattus norvegicus, UniProt Q00788): recorded pIC50 for assorted compounds
Sequence (Q00788 whole entry): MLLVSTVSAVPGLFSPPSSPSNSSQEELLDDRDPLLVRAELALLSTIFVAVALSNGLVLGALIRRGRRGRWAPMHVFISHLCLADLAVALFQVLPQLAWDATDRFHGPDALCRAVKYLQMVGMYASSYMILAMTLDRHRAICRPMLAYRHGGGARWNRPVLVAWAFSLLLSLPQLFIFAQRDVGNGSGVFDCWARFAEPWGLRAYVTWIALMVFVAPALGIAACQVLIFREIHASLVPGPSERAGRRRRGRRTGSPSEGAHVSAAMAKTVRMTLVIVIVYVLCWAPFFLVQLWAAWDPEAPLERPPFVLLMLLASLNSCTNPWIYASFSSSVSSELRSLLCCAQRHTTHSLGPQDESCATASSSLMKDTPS
Please note pIC50 is a logarithmic value: minus log10 of concentration in mol/L. Answer with that number alone.

Reference set (5 entries):
CC1(C)[C@@H]2CC[C@@]1(CS(=O)(=O)N1CCC3(CCc4ccccc43)CC1)[C@@H](NC(=O)Cn1ccnc1)C2 : 5.00
CC1(C)[C@@H]2CC[C@@]1(CS(=O)(=O)N1CCC3(CCc4ccccc43)CC1)[C@@H](NC(=O)[C@H](N)CCC(N)=O)C2 : 5.29
CC1(C)[C@@H]2CC[C@@]1(CS(=O)(=O)N1CCC3(CCc4ccccc43)CC1)[C@@H](NC(=O)C1CN3CCC1CC3)C2 (stereo not given in full) : 5.26
CC1(C)[C@@H]2CC[C@@]1(CS(=O)(=O)N1CCC3(CCc4ccccc43)CC1)[C@@H](NC(=O)N(CCC(=O)O)CCc1c[nH]cn1)C2 : 5.07
CC1(C)[C@@H]2CC[C@@]1(CS(=O)(=O)N1CCC3(CCc4ccccc43)CC1)[C@@H](NC(=O)Cc1ccncc1)C2 : 5.00

Okay, now this compound:
The value of pIC50 recorded for CC1(C)[C@@H]2CC[C@@]1(CS(=O)(=O)N1CCC3(CCc4ccccc43)CC1)[C@@H](NC(=O)CC1CCCNC1)C2 (stereo not given in full) when tested on Vasopressin V2 receptor (Rattus norvegicus, UniProt Q00788) reads 4.92

====

# test target: Vasopressin V1 receptor (Rattus norvegicus, UniProt P48974+P30560)
# method: Inhibition of radioligand [3H]AVP binding to the vasopressin V1 receptor in rat liver tissue
Catalogue of log10 of IC50 readings, one per entry.
Base-10 log of IC50, unit nM.

CC1(C)[C@@H]2CC[C@@]1(CS(=O)(=O)N1CCC3(CCc4ccccc43)CC1)[C@@H](N1C(=O)C3CCC(=N)N3C1=O)C2 (some centres not stated) : 3.04
CC(=O)N[C@H]1C[C@H]2CC[C@]1(CS(=O)(=O)N1CCC3(CCc4ccccc43)CC1)C2(C)C : 3.88
CC1(C)[C@@H]2CC[C@@]1(CS(=O)(=O)N1CCC3(CCc4ccccc43)CC1)[C@H](NC(=O)Cc1c[nH]cn1)C2 : 3.71

In plain terms, `CC1(C)[C@@H]2CC[C@@]1(CS(=O)(=O)N1CCC3(CCc4ccccc43)CC1)[C@@H](NC(=O)[C@@H](Cc1c[nH]cn1)NC(=O)CCC(N)=O)C2` has a documented log10 of IC50 of 3.48

Recorded log10 of IC50 (compound `CC1(C)[C@@H]2CC[C@@]1(CS(=O)(=O)N1CCC3(CCc4ccccc43)CC1)[C@@H](NC(=O)Cc1ccccc1)C2` ): 3.43

Given item `CC1(C)[C@@H]2CC[C@@]1(CS(=O)(=O)N1CCC3(CCc4ccccc43)CC1)[C@@H](NC(=O)N(CCC(=O)O)CCc1c[nH]cn1)C2` , the value recorded as its log10 of IC50 is 3.60

Noted for CC1(C)[C@@H]2CC[C@@]1(CS(=O)(=O)N1CCC3(CCc4ccccc43)CC1)[C@@H](NC(=O)C(N)CCS(N)(=O)=O)C2 (some centres not stated) : its log10 of IC50 reads 3.60

Just so you know, measured log10 of IC50 for CC1(C)[C@@H]2CC[C@@]1(CS(=O)(=O)N1CCC3(CCc4ccccc43)CC1)[C@@H](N1C(=O)C3CC(O)CN3C1=O)C2 (some centres not stated) came out at 2.70

log10 of IC50 recorded for this compound, `CC1(C)[C@@H]2CC[C@@]1(CS(=O)(=O)N1CCC3(CCc4ccccc43)CC1)[C@@H](N1C(=O)CNC1=O)C2` , is 3.04

Entry CC1(C)[C@@H]2CC[C@@]1(CS(=O)(=O)N1CCC3(CCc4ccccc43)CC1)[C@@H](N1C(=O)NC(Cc3c[nH]cn3)C1=O)C2 (mixture of isomers) — recorded log10 of IC50 = 2.76

Just so you know, measured log10 of IC50 for `CC(C)[C@H](NC(=O)Cc1c[nH]cn1)C(=O)NC[C@@]1(O)C[C@H]2CC[C@]1(CS(=O)(=O)N1CCC3(C=Cc4ccccc43)CC1)C2(C)C` came out at 1.83

====

// values below are reported IC50
# test target: Vasopressin V1 receptor (Rattus norvegicus, UniProt P48974+P30560)
# method: Inhibition of radioligand [3H]AVP binding to the vasopressin V1 receptor in rat liver tissue

Recorded results for 4 compounds are shown here.
CC1(C)[C@@H]2CC[C@@]1(CS(=O)(=O)N1CCC3(C=Cc4ccccc43)CC1)[C@@](O)(CCNC(=O)c1ccccn1)C2 : > 1000 nM
CC1(C)[C@@H]2CC[C@@]1(CS(=O)(=O)N1CCC3(CCc4ccccc43)CC1)[C@@H](NC(=O)Cn1ccnc1)C2 : 16000 nM
CC1NC(=O)N([C@H]2C[C@H]3CC[C@]2(CS(=O)(=O)N2CCC4(CCc5ccccc54)CC2)C3(C)C)C1=O (stereo partly specified) : 710 nM
CC1(C)[C@@H]2CC[C@@]1(CS(=O)(=O)N1CCC3(C=Cc4ccccc43)CC1)[C@@](O)(CNC(=O)C(N)CCS(C)(=O)=O)C2 (stereo partly specified) : 3700 nM

Sure, the documented IC50 for `CC1(C)[C@H]2CC[C@]1(CS(=O)(=O)N1CCC3(CCc4ccccc43)CC1)[C@H](NC(=O)Cc1c[nH]cn1)C2` is > 3000 nM

Item: CC1(C)[C@@H]2CC[C@@]1(CS(=O)(=O)N1CCC3(CCc4ccccc43)CC1)[C@@H](NC(=O)C1CNC(=O)N1)C2 (stereo partly specified) | IC50: > 3000 nM
